# system: human adenosine A1 receptor (Homo sapiens, UniProt P30542)
# Construct: expressed in transfected cells; host or cells: HEK293 cells infected with BacMam (the same paragraph also labels the preparation CHO-hA1)
# protocol summary: Inhibition binding assay, human adenosine A1 receptor membranes, [3H]DPCPX
# measurement context: 1 nM [3H]DPCPX, 25° C., 1 h; IC50 converted to Ki with Cheng-Prusoff; read-out: A1 pKi (converted)
Grouping by measured Ki is done with the following cut points: I = under 100 nM, II = from 100 nM up to 500 nM, III = 500 nM and over

For orientation, consider the following solved cases.
compound="Cc1cc(-c2c(-c3ccc(C#N)cc3)nc(N)n3c(=O)n(CCC(F)(F)F)nc23)cc(C)n1 [Example 2-36]" category_label=III
compound="COc1cc(-c2c(-c3ccccc3)nc(N)n3c(=O)n(Cc4ccc(Cl)cn4)nc23)cc(CO)n1 [Example 1-65]" category_label=III
compound="Cc1cc(-c2c(-c3ccccc3)nc(N)n3c(=O)n(CCC(=O)N(C)C)nc23)cc(C)n1 [Example 2-23]" category_label=III
compound="Cc1cc(-c2c(-c3ccccc3)nc(N)n3c(=O)n(Cc4ncc(F)cc4Cl)nc23)cc(CO)n1 [Example 1-50]" category_label=II
compound="COc1nc(N)n2c(=O)n(CCC(F)(F)F)nc2c1-c1cc(C)nc(C)c1 [Example 3-8]" category_label=III

Ask: Form field 'band' for Cc1cc(-c2c(-c3ccc(F)cc3F)nc(N)n3c(=O)n(CCC(F)(F)F)nc23)cc(C)n1 [Example 2-34]
Result: III

Ask: Field entry: Cc1cc(-c2c(-c3ccccc3)nc(N)n3c(=O)n(CCN4CCC4)nc23)cc(C)n1 [Example 2-94]
Result: III

Ask: What would you report for COc1ncc(F)cc1Cn1nc2c(-c3cc(C)nc(C)c3)c(-c3ccccc3)nc(N)n2c1=O [Example 1-40] ?
Result: I

Ask: Now consider CC1=NN(c2cccc(NCCn3nc4c(-c5cc(C)nc(C)c5)c(-c5ccccc5)nc(N)n4c3=O)c2)C(=O)C1 [Example 1-98] and answer again.
Result: III

Ask: Next up: Cc1cc(-c2c(-c3ccccc3)nc(N)n3c(=O)n([C@@H]4CCCc5ccc(F)cc54)nc23)cc(C)n1 [Example 1-14]
Result: I

Ask: Again, but for Cc1cc(-c2c(-c3ccccc3)nc(N)n3c(=O)n(CC4CCN(C)CC4)nc23)cc(C)n1 [Example 2-78]
Result: III

Ask: Also Cc1cc(-c2c(-c3ccccc3)nc(N)n3c(=O)n(CC4CCCOC4)nc23)cc(C)n1 (stereo not drawn) [Example 2-81] ?
Result: II

Ask: Next compound up: Cc1cc(-c2c(-c3ccccc3)nc(N)n3c(=O)n(Cc4ccccc4C4CCNCC4)nc23)cc(C)n1 [Example 1-30]
Result: I

Ask: Now give it for Cc1cc(-c2c(-c3ccccc3)nc(N)n3c(=O)n(C4CCCNC4)nc23)cc(C)n1 (stereo not drawn) [Example 2-55] too.
Result: III

Ask: Please answer likewise for COc1nc(Cn2nc3c(-c4cc(C)nc(C)c4)c(-c4ccccc4)nc(N)n3c2=O)ccc1F [Example 1-7]
Result: II

Ask: What about Cc1ccc(NC2CCN(CCn3nc4c(-c5cc(C)nc(C)c5)c(-c5ccccc5)nc(N)n4c3=O)CC2)nc1 [Example 1-97] ?
Result: III

Ask: Same read-out for Cc1cc(-c2c(-c3ccccc3)nc(N)n3c(=O)n(CC4CCCS(=O)(=O)C4)nc23)cc(C)n1 (single isomer, unassigned) [Example 2-89-iso-2] ?
Result: II

Ask: For Cc1cc(-c2c(-c3ccncc3)nc(N)n3c(=O)n(CCC(F)(F)F)nc23)cc(C)n1 [Example 2-38] then?
Result: III

Ask: Same for Cc1cc(-c2c(-c3ccccc3)nc(N)n3c(=O)n(CCO)nc23)cc(C)n1 [Example 2-7]
Result: III

Ask: And then Cc1cc(-c2c(-c3ccccc3)nc(N)n3c(=O)n(CCC#N)nc23)cc(C)n1 [Example 2-11] , what is it?
Result: III

Ask: # iterate: Cc1cc(-c2c(-c3ccccc3)nc(N)n3c(=O)n(CC4CCCOC4)nc23)cc(CO)n1 (single isomer, unassigned) [Example 2-92-iso-2]
Result: II

Ask: Item: Cc1cc(-c2c(-c3ccccc3)nc(N)n3c(=O)[nH]nc23)cc(C)n1 [Example 2-1]
Result: I

Ask: Next entry: Cc1cc(-c2c(-c3ccccc3)nc(N)n3c(=O)n(C[C@@H]4COCCN4Cc4ccccc4)nc23)cc(C)n1 [Example 1-101]
Result: I

Ask: Another: Cc1cc(-c2c(-c3ccccc3)nc(N)n3c(=O)n(CC(=O)N(C)C4CC4)nc23)cc(C)n1 [Example 2-28]
Result: II

---

# system: human CB1 receptor (Homo sapiens)
# Sequence (P21554 whole entry): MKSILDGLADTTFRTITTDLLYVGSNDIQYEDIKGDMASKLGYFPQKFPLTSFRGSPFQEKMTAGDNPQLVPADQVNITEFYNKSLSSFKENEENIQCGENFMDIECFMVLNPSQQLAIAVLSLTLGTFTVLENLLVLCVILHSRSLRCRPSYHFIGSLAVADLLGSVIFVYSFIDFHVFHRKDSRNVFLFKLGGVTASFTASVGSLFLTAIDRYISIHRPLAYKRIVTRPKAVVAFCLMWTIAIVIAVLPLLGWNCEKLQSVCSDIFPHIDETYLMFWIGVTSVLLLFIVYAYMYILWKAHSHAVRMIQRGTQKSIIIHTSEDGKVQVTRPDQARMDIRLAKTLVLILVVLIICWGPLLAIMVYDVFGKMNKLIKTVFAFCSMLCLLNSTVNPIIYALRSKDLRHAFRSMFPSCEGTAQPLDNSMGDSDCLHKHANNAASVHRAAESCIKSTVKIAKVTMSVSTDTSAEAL
# protocol summary: CB1 receptor antagonism, agonist-induced cAMP modulation (HTRF) in transfected CHO cells
# measurement context: read-out: Antag IC50
measured parameter: log10 of IC50 (log10 of the value in µM)
A difference of one corresponds to tenfold IC50; all values are log10 with IC50 in µM.

compound="Cc1cc(-c2c(-c3ccccc3)nc(N)n3c(=O)n(CC45C6C7C4C4C5C6C74F)nc23)cc(CO)n1 (stereo not drawn) [Example 2-60]" readout_value=0.38
compound="Cc1cc(-c2c(-c3ccccc3)nc(N)n3c(=O)n(CCOC(F)(F)F)nc23)cc(C)n1 [Example 2-30]" readout_value=1.29
compound="COc1nc(Cn2nc3c(-c4cc(C)nc(C)c4)c(-c4ccccc4)nc(N)n3c2=O)ccc1F [Example 1-7]" readout_value=0.51
compound="Cc1cc(-c2c(-c3ccccc3)nc(N)n3c(=O)n(C(C)c4ccc(F)cc4F)nc23)cc(C)n1 (stereo not drawn) [Example 1-11]" readout_value=0.70

Ask: What does the record list as log10 of IC50 for Cc1cc(-c2c(-c3ccccc3)nc(N)n3c(=O)n(CC4CCC(F)(F)C4)nc23)cc(C)n1 (stereo not drawn) [Example 2-26] ?
Result: 0.54

Ask: For Cc1cc(-c2c(-c3ccccc3)nc(N)n3c(=O)n(C4CCCN(C(=O)OC(C)(C)C)C4)nc23)cc(C)n1 (stereo not drawn) [Example 2-54] then?
Result: 0.04

Ask: Then what about the compound COc1cc(-c2c(-c3ccccc3)nc(N)n3c(=O)n(Cc4ccc(Cl)cn4)nc23)cc(CO)n1 [Example 1-65] ?
Result: 0.97

Ask: Then what about the compound Cc1cc(-c2c(-c3ccc(F)cc3)nc(N)n3c(=O)n(Cc4cccnn4)nc23)cc(C)n1 [Example 1-41] ?
Result: 1.63

---

# system: human adenosine A2A receptor (Homo sapiens, UniProt P29274)
# Construct: expressed in transfected cells; host or cells: HEK293 cells infected with BacMam
# Sequence (P29274 whole entry): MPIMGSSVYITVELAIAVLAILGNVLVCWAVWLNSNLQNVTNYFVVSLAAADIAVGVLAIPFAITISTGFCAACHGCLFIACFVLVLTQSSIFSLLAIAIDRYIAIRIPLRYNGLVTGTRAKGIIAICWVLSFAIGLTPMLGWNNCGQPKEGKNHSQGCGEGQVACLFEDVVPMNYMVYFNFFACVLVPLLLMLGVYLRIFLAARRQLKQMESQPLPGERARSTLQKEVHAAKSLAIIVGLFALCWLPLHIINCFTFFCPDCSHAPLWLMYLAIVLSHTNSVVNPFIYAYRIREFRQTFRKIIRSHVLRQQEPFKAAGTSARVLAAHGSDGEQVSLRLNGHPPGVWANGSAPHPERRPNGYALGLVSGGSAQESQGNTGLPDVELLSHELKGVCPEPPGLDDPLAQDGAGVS
# protocol summary: Inhibition binding assay, human adenosine A2A receptor membranes, [3H]ZM241385
# measurement context: 1 nM [3H]ZM241385, HEK293-hA2A membranes, 25° C., 1 h; IC50 converted to Ki with Cheng-Prusoff; read-out: A2A pKi (converted)
measured parameter: Ki (nM)
Lab book: enter the figure in nM, no units written.

Ask: Can you share its Ki? I mean this compound: Cc1cc(-c2c(-c3ccccc3)nc(N)n3c(=O)n(C(C)Cc4ccccc4)nc23)cc(C)n1 (stereo not shown) [Example 1-81]
Result: 25.1

Ask: Now the same for Cc1cc(-c2c(-c3ccccc3)nc(N)n3c(=O)n(C(CN)c4c(F)cccc4F)nc23)cc(C)n1 (stereo not shown) [Example 1-34]
Result: 1

---

Ki for assorted compounds
# system: human adenosine A1 receptor (Homo sapiens)
# Construct: expressed in transfected cells; host or cells: HEK293 cells infected with BacMam (the same paragraph also labels the preparation CHO-hA1)
# Sequence (P30542 1-326): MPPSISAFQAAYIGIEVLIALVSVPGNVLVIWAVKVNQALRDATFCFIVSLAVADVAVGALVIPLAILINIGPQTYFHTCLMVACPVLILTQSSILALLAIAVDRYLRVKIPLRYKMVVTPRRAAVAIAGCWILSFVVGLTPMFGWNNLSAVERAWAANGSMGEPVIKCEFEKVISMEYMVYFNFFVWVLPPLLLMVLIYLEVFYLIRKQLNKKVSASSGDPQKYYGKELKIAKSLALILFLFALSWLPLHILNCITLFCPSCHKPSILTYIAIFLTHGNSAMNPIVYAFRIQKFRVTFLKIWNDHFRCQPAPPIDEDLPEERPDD
# protocol summary: Inhibition binding assay, human adenosine A1 receptor membranes, [3H]DPCPX
# measurement context: 1 nM [3H]DPCPX, 25° C., 1 h; IC50 converted to Ki with Cheng-Prusoff; read-out: A1 pKi (converted)
Response body: numeric value in nM, unit text excluded.

compound="CCC(c1ccc(F)cn1)n1nc2c(-c3cc(C)nc(C)c3)c(-c3ccccc3)nc(N)n2c1=O (single isomer, unassigned) [1-38 iso-1]" measured_parameter=Ki readout_value=501
compound=Cc1cc(-c2c(-c3ccccc3)nc(N)n3c(=O)n(CCc4ccccc4)nc23)cc(Cl)n1 measured_parameter=Ki readout_value=126
compound=Cc1cc(-c2c(-c3ccccc3)nc(N)n3c(=O)n(Cc4ccccc4OCC4CC4)nc23)cc(C)n1 measured_parameter=Ki readout_value=2
compound="Cc1cc(-c2c(-c3ccccc3)nc(N)n3c(=O)n(CC4CCC(F)(F)C4)nc23)cc(C)n1 (centres unmarked)" measured_parameter=Ki readout_value=100
compound=Cc1cc(-c2c(-c3ccccc3)nc(N)n3c(=O)n(Cc4ccc(Br)cn4)nc23)cc(CO)n1 measured_parameter=Ki readout_value=501
compound="Cc1cc(-c2c(-c3ccccc3)nc(N)n3c(=O)n(CC4CCCCO4)nc23)cc(C)n1 (centres unmarked) [Example 2-82]" measured_parameter=Ki readout_value=251
compound=CCn1nc2c(-c3cc(C)nc(C)c3)c(-c3ccccc3)nc(N)n2c1=O measured_parameter=Ki readout_value=631
compound=Cc1cc(-c2c(-c3ccccc3)nc(N)n3c(=O)n(Cc4ccc(F)cn4)nc23)cc(N2CCC2)n1 measured_parameter=Ki readout_value=126

Ask: # input compound: Cc1cc(-c2c(-c3ccccc3)nc(N)n3c(=O)n(CCN4CCCCCC4c4cccn4C)nc23)cc(C)n1 (centres unmarked) ; wanted: its Ki
Result: 251

Ask: Further, for [2H]c1c([2H])c([2H])c(-c2nc(N)n3c(=O)n(Cc4ccc(F)c(N)n4)nc3c2-c2cc(C)nc(CO)c2)c([2H])c1[2H] ?
Result: 251
